Cited source for all entries: patent US20200247894A1

# MEASURED TARGET: T1, Human IL2Rγ extracellular domain expressed with a C-terminal mouse IgG2a Fc tag (human)
# T1 construct: whole entry is the Fc-fused construct; also called hIL-2Rg-mFc
# T1 chain: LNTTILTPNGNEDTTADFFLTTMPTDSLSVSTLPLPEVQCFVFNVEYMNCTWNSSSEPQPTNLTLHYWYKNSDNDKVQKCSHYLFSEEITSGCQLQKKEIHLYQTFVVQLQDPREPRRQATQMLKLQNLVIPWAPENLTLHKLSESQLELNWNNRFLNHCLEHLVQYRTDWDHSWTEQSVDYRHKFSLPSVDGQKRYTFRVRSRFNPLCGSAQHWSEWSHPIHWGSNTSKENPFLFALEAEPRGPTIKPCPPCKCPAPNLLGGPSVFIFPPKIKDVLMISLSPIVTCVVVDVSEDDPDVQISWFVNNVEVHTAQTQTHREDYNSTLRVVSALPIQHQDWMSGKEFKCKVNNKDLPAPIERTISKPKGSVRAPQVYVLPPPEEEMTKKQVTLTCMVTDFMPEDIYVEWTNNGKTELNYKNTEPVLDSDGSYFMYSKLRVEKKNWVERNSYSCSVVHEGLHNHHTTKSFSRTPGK
# TEST: SPR Biacore 4000, anti-hFc-captured mAb, 37 C
READOUT KIND: 50 nM Ag Bound (RU)
Quick note: give the figure in RU, leave out the unit.

Here is how some binders turned out for 50 nM Ag Bound.
H4H13541P (antibody, human IgG4 S228P, kappa, V domains shown, fully human anti-IL2Rgamma mAb, human IgG4 Fc) VH: EVQLVESGGGVVRPGGSLRLSCAASGFIFDDYDMSWVRQPPGRGLEWVSGIDWFGGTRGYADSMKGRFTISRDNAKNSLYLQMNSLRVEDTAFYYCARGGAIVGAVTPFDYWGQGTLVTVSS VL: DIQMTQSPSSLSASVGNRVTLSCRASQSINTYLSWYQQRPGKAPKLLIYAASSLQSGVPSRFSGSGAGTDFTLTISSLQPEDFATYYCQQSYSAPLTFGGGTKVEIKR	42
H4H12871P (antibody, human IgG4 S228P, kappa, V domains shown, fully human anti-IL2Rgamma mAb, human IgG4 Fc; also called REGN9434) VH: QVQLQESGPGLVKPSQTLSLTCTVSGGSITSGGYYWSWIRQYPGQGLEWIGYIYYSGKTYYNPSFTSRITISVDTSKKQFSLKMSSVTAADTAVYYCARAGFTSSNGWFDPWGQGTLVTVSS VL: DIQMTQSPSSLSASVGDRVTITCRASQNIRSYLNWYQQKPGKAPKLLIYSASSLQSGVPSRFSGSGSGTDFTLTISSLQPEDFPTYYCQQTYSSPWTFGPGTKVEIKR	81

Moving on to the next binder.
Which 50 nM Ag Bound is reported for this binder? H4H12858P (antibody, human IgG4 S228P, kappa, V domains shown, fully human anti-IL2Rgamma mAb, human IgG4 Fc; also called REGN9433) VH: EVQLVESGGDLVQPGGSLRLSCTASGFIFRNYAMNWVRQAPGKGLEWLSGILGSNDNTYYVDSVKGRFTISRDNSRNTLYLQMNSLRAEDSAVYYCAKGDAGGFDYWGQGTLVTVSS VL: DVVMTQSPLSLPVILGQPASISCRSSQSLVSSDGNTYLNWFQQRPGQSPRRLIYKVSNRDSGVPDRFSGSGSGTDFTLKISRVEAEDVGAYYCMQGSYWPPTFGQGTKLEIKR 37
